Target: Ribosomal protein S6 kinase alpha-3 (Homo sapiens)
Sequence (P51812 whole entry, the tested form may be a part): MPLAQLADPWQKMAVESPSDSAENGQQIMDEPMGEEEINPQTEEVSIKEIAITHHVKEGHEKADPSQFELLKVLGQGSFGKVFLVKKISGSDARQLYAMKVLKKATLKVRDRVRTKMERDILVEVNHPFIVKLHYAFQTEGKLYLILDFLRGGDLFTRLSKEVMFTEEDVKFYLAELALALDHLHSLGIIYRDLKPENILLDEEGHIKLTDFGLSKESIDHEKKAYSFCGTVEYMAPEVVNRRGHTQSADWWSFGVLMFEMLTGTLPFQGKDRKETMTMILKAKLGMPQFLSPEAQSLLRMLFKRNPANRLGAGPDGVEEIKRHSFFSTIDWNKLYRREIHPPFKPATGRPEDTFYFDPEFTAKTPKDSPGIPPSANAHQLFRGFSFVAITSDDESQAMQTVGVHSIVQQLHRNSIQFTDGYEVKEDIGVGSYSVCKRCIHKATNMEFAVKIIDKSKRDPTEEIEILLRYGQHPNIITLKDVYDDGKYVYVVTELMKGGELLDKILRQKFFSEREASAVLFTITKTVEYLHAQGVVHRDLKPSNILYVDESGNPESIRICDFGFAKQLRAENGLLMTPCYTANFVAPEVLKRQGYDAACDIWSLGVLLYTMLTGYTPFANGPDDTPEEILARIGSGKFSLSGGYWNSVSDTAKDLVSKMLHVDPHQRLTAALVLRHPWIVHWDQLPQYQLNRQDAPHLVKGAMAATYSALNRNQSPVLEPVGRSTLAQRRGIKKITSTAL
Assay: Inhibition of recombinant RSK2 (unknown origin) expressed in baculovirus infected Sf9 cells assessed as decrease in substrate phosphorylation using GST-fusion protein containing ERalpha-Ser167 sequence-RLASTND as substrate by chemiluminescence analysis
measured endpoint: IC50 (nM)

1) CCC[C@@H]1O[C@@H](Oc2c(-c3ccc(O)cc3)oc3cc(O)cc(O)c3c2=O)[C@H](OC(C)=O)[C@H](O)[C@H]1OC(C)=O
620
2) CCC[C@@H]1O[C@@H](Oc2c(-c3ccc(O)cc3)oc3cc(O)cc(O)c3c2=O)[C@H](OC(C)=O)[C@H](OC(C)=O)[C@H]1OC(C)=O
1770
3) CCC[C@@H]1O[C@@H](Oc2c(-c3ccc(O)cc3)oc3cc(O)cc(O)c3c2=O)[C@H](O)[C@H](O)[C@H]1OC(C)=O
1500
4) CC[C@@H]1O[C@@H](Oc2c(-c3ccc(O)cc3)oc3cc(O)cc(O)c3c2=O)[C@H](O)[C@H](O)[C@H]1O
1510

---

Assay: Half life in CD1 mouse at 1 mg/kg, iv
Type: ADME, organism-based
Set-up: dose 1 mg/kg, route intravenous
Conditions: in vivo
measured endpoint: half-life (min)

1) CC(=O)O[C@@H]1[C@@H](OC(C)=O)[C@@H](O)[C@H](Oc2c(-c3ccc(O)cc3)oc3cc(O)cc(O)c3c2=O)O[C@H]1C
9

---

Measured logP, listed per entry for reference.
Experiment: Partition coefficient, log P of the compound
Type: physicochemical
Conditions: octanol/water
measured endpoint: logP

1. CC(=O)O[C@@H]1[C@@H](OC(C)=O)[C@@H](O)[C@H](Oc2c(-c3ccc(O)cc3)oc3cc(O)cc(O)c3c2=O)O[C@H]1C
2.11
2. CC(C)C[C@@H]1O[C@@H](Oc2c(-c3ccc(O)cc3)oc3cc(O)cc(O)c3c2=O)[C@H](O)[C@H](O)[C@H]1O
2.41
3. CCC[C@@H]1O[C@@H](Oc2c(-c3ccc(O)cc3)oc3cc(O)cc(O)c3c2=O)[C@H](O)[C@H](O)[C@H]1OC(C)=O
2.9
4. CCC[C@@H]1O[C@@H](Oc2c(-c3ccc(O)cc3)oc3cc(O)cc(O)c3c2=O)[C@H](O)[C@H](OC(C)=O)[C@H]1OC(C)=O
3.17
5. CC[C@@H]1O[C@@H](Oc2c(-c3ccc(O)cc3)oc3cc(O)cc(O)c3c2=O)[C@H](O)[C@H](O)[C@H]1O
1.64
6. CCC[C@@H]1O[C@@H](Oc2c(-c3ccc(O)cc3)oc3cc(O)cc(O)c3c2=O)[C@H](OC(C)=O)[C@H](O)[C@H]1OC(C)=O
3.39
7. CCC[C@@H]1O[C@@H](Oc2c(-c3ccc(O)cc3)oc3cc(O)cc(O)c3c2=O)[C@H](OC(C)=O)[C@H](OC(C)=O)[C@H]1OC(C)=O
3.87
8. CCC[C@@H]1O[C@@H](Oc2c(-c3ccc(O)cc3)oc3cc(O)cc(O)c3c2=O)[C@H](O)[C@H](O)[C@H]1O
2.2

---

Assay: Half life in CD1 mouse at 2.5 mg/kg, ip
Assay type: ADME, organism-based
Set-up: dose 2.5 mg/kg, route intraperitoneal
Conditions: in vivo
measured endpoint: half-life (min)

1. CC(=O)O[C@@H]1[C@@H](OC(C)=O)[C@@H](O)[C@H](Oc2c(-c3ccc(O)cc3)oc3cc(O)cc(O)c3c2=O)O[C@H]1C
24
